Each recorded value in this set is attributed to paper PMC2559975.

- System: CCRF-CEM human leukemia cell line
- experiment.notes: In vitro cytotoxic activity
- Assay type: cell-based
- experimental.context: Homo sapiens, CCRF-CEM, read-out: IC50 [(-)T, (-)H] CCRF-CEM

- compound: "Nc1nc(N)c(CCCC(C(=O)C(F)(F)F)c2ccc(C(=O)N[C@@H](CCC(=O)O)C(=O)O)cc2)c(=O)[nH]1 (stereo partly drawn) [Compound 2, 10-CF3CO-DDACTHF, reference compound]"
  units.symbol: "nM"
  IC50: 60
- compound: "CS[C@H](CCCc1c(N)nc(N)[nH]c1=O)c1ccc(C(=O)N[C@@H](CCC(=O)O)C(=O)O)cc1 [Compound 10R-3]"
  units.symbol: "nM"
  IC50: 90
- compound: "CO[C@@H](CCCc1c(N)nc(N)[nH]c1=O)c1ccc(C(=O)N[C@@H](CCC(=O)O)C(=O)O)cc1 [Compound 10S-8]"
  units.symbol: "nM"
  IC50: 800

* * *

- target.under.test: rhGAR Tfase (Homo sapiens, UniProt P22102)
- Sequence (P22102 808-1010 limits assumed): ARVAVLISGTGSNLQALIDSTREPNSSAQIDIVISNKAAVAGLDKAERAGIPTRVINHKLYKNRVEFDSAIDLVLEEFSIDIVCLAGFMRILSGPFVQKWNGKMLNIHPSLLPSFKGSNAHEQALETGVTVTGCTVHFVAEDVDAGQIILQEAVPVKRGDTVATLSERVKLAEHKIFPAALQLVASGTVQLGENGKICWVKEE
pKi: −log10 of the molar value.

- compound: "Nc1nc(N)c(CCC[C@H](O)c2ccc(C(=O)N[C@@H](CCC(=O)O)C(=O)O)cc2)c(=O)[nH]1 [Compound 10S-7]"
  pKi: 5.92
